# assay method text: Oral bioavailability in dog using crystalline at 0.5 mg/kg by LC-MS/MS analysis
# Assay type: ADME, organism-based, Canis lupus familiaris
# condition parameters: in vivo
quantity name: bioavailability
Please append the unit to your numeric answer.

What value of bioavailability has been recorded for this entry: CC(C)(O)c1cc(C(F)(F)F)ncc1-c1ccc(C2(C(=O)Nc3ccc(F)cc3)COC2)cc1
16%

---

# subject of test: Indoleamine 2,3-dioxygenase 1 (Homo sapiens)
# Sequence (P14902 whole entry): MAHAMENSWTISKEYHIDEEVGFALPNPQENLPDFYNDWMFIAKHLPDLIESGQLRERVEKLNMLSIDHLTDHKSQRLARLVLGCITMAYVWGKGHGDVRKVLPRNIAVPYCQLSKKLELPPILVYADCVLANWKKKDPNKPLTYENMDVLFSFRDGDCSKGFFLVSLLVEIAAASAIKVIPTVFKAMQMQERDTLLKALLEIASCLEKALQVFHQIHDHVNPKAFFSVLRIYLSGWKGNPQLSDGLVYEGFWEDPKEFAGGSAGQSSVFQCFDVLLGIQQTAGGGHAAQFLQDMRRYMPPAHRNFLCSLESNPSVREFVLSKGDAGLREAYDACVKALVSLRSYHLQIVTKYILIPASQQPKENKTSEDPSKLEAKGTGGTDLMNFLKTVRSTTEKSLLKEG
quantity name: Ki (nM)
State just the number; it will be interpreted in nM.

Suppose we examine the compound CC(C)(O)c1cc(C(F)(F)F)ncc1-c1ccc(C2(C(=O)Nc3ccc(F)cc3)COC2)cc1 ; what Ki value has been reported?
0.11
